Recorded values, source patent US8501754B2.

- target-entity: Recombinant human HSP90a (Homo sapiens)
- assay-comment: radioligand filter binding test ([3H]17AAG competition) for HSP90 inhibition
- run-conditions: competition with [3H]17AAG 0.08 μM, HSP90 1.5 μg/assay, 22° C., 30 min
Readings of IC50 for the listed molecules
readout-label: IC50

>  <molecule>
CCCN(C)C(=O)c1nc(N)nc2ccccc12 [Compound A10]

>  <target-entity>
Recombinant human HSP90a (Homo sapiens)

>  <readout-label>
IC50

>  <observed-measurement>
> 10 µM

$$$$
>  <molecule>
CN(C)CCNCc1ccccc1-c1ccc2nc(N)nc(C(=O)N3Cc4ccccc4C3)c2c1 [Compound A973]

>  <target-entity>
Recombinant human HSP90a (Homo sapiens)

>  <readout-label>
IC50

>  <observed-measurement>
0.01 to 1 µM

$$$$
>  <molecule>
CCN(C)C(=O)c1nc(N)nc2ccccc12 [Compound A6]

>  <target-entity>
Recombinant human HSP90a (Homo sapiens)

>  <readout-label>
IC50

>  <observed-measurement>
> 10 µM

$$$$
>  <molecule>
Nc1nc(C(=O)N2Cc3ccccc3C2)c2cc(-c3ccccc3CNCCO)ccc2n1 [Compound A972]

>  <target-entity>
Recombinant human HSP90a (Homo sapiens)

>  <readout-label>
IC50

>  <observed-measurement>
0.01 to 1 µM

$$$$
